Listing: exon inclusion enrichment index of selected variants
B1: mRNA-splicing (parent)
chain: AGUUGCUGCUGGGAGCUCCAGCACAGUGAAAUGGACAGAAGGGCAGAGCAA

Variants of: B1
assay.text: exon inclusion enrichment index; higher = more inclusion; WT1 exon 5 minigene, HEK293

Below: 8 variants and their reported exon inclusion enrichment index.
{"mutant.code": "G5C C6A U7C G8A U10A C22A A23U", "exon inclusion enrichment index": 0.0806}
{"mutant.code": "G2U U3C G5A U7C G8A U10C", "exon inclusion enrichment index": 4.11}
{"mutant.code": "G5A C6G U7G C9A G15C C16G", "exon inclusion enrichment index": 0.004}
{"mutant.code": "G5A C6U U7A G8U C9A U32C G33U", "exon inclusion enrichment index": 0.0226}
{"mutant.code": "G5A C6U U7A G8U C9A C16A", "exon inclusion enrichment index": 0.0643}
{"mutant.code": "G5U C6U U7C G8A U10A", "exon inclusion enrichment index": 0.0434}
{"mutant.code": "G5U G8U C9U C44U A45C", "exon inclusion enrichment index": 0.215}
{"mutant.code": "G5A C6U U7A C9U", "exon inclusion enrichment index": 0.0151}

# input for lookup
Query C6A U7A C9A U10A G46U A47C yields exon inclusion enrichment index of 1.79
